Would you mind telling me the reported log10 of IC50 of each entry?
Target: DCN1 (Homo sapiens (Human))
Sequence (Q96GG9 58-259): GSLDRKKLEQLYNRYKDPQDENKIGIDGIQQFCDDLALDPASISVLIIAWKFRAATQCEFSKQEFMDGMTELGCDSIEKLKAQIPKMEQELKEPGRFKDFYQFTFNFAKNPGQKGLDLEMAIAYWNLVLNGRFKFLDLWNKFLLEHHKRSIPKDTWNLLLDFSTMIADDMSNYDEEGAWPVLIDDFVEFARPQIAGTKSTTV
Assay: Competitive FP binding assay
Conditions: read-out: Binding affinity to DCN1 (IC50 (nM))
Protocol: Competitive FP Binding Assay The Fluorescence Polarization (FP) competitive binding assays were performed to accurately determine the binding affinities of our DCN1 inhibitors. […] Serial dilutions of proteins were mixed with 46 to a final volume of 200 μl in the assay buffer (100 mM phosphate buffer, pH=6.5, with 0.02% Tween-20 and 2% DMSO). Final probe concentration was 5 nM for both assays. Plates were incubated at room temperature for 30 minutes with gentle shaking to assure equilibrium. […]
Square brackets hold non-standard residues; d marks the D form. Peptide text beside a SMILES is read from it. * marks the point of attachment. Ala(6-iPr-benzothiazol-2-yl) = CC(C)c1ccc2nc(C[C@H](N)C(=O)O)sc2c1; Abu = CC[C@H](N)C(=O)O; Propionyl = CCC(=O)*; For = O=C*
Answers are given as log10 of IC50 in nM.

// worked examples, log10 of IC50 included
| compound | log10 of IC50 |
| --- | --- |
| CCC(=O)N[C@@H](Cc1nc(C)c(-c2cccc(Cl)c2)s1)C(=O)N[C@H](CN)Cc1ccccc1 | 2.42 |
| CCC(=O)N[C@H](CNC(=O)c1ccccn1)Cc1nc2ccc(Cl)cc2s1 | 3.33 |
| CC[C@H](C)[C@H](NC(=O)[C@H](Cc1nc2ccc(C(C)C)cc2s1)NC=O)C(=O)N[C@@H](CCCCN)C(=O)N[C@@H](CC(C)C)C(N)=O [Example 271] (For-[Ala(6-iPr-benzothiazol-2-yl)]IKL-NH2) | 2.09 |
| CCC(=O)N[C@@H](Cc1nc2ccc(C(C)C)cc2s1)C(=O)N[C@@H](CC)C(=O)N[C@@H](CCCCN)C(=O)N[C@@H](CC(C)C)C(N)=O [Example 281] (Propionyl-[Ala(6-iPr-benzothiazol-2-yl)][Abu]KL-NH2) | 1.57 |

Need log10 of IC50 for each of these compounds.
1. CCC(=O)N[C@@H](Cc1nc2ccc(Cl)cc2s1)C(=O)N[C@H](CN)C1CCCCC1
2. CCC(=O)N[C@@H](Cc1nc2ccc(Cl)cc2s1)C(=O)N[C@H](CN)C1CCOCC1

1. 2.54
2. 3.19

====

biological target: UniProt Q96GG9; assay: Competitive FP binding assay; conditions: read-out: Binding affinity to DCN1 (IC50 (nM))
Define the label as met when IC50 is strictly less than 100 nM and as not met in all remaining cases.

// known answers, use as guide
| substanceSmiles | qualitativeLabel |
| --- | --- |
| CCC(=O)N[C@@H](Cc1nc2ccc(C(C)C)cc2s1)C(=O)N[C@H](CN(C)C)C1CCCCC1 | met |
| CCC(=O)N[C@@H](Cc1nc2ccc(C(C)C)cc2s1)C(=O)N[C@H](CN)[C@@H](C)CC | met |
| CCC(=O)N[C@@H](Cc1ccc2ccccc2c1)C(=O)N[C@H](C(=O)N[C@@H](CCCCN)C(=O)N[C@@H](c1ccccc1)c1cn(CCN)nn1)C1CCCC1 | not met |

For this compound, is IC50 lower than 100 nM? "CCC(=O)N[C@@H](Cc1nc2ccc(C)cc2o1)C(=O)N[C@H](C(=O)N[C@@H](CCCCN)C(=O)N[C@@H]1CCOc2ccccc21)C1CCOCC1"
met

Further, for "CCC(=O)N[C@@H](Cc1nc2ccc(C(C)C)cc2s1)C(=O)N[C@H](CNC(=O)c1cn(C)cn1)C1CCCCC1" ?
not met

Further, for "CCC(=O)N[C@@H](Cc1ccc2ccccc2c1)C(=O)N[C@H](C(=O)N[C@@H](CCCCN)C(=O)NC(c1ccccc1)c1ccccc1)C1CCCCC1" ?
not met
